Source listed as paper PMC8294944.

Target: ERα (Ishikawa endometrial carcinoma cells) (Homo sapiens, UniProt P03372)
Sequence (P03372 whole entry): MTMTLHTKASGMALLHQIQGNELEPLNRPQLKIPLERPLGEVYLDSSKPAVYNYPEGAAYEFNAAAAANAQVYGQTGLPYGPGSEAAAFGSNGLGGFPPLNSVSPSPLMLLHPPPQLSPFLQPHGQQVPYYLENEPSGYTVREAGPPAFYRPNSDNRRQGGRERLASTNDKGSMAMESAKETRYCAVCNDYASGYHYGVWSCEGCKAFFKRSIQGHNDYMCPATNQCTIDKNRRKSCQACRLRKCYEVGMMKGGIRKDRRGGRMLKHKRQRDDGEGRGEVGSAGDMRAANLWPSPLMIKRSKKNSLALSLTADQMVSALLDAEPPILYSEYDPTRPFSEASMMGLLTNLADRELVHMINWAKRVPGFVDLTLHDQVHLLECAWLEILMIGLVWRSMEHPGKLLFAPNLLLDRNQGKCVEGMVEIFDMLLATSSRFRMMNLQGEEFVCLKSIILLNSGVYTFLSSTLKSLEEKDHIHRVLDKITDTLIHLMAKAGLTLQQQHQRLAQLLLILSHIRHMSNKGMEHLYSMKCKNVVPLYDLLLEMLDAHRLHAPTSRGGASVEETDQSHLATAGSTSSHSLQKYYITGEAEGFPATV
Experiment: Estrogen-responsive alkaline phosphatase assay in ERα positive Ishikawa cells
Assay type: cell-based
Details: read-out: ERα EC50 (compounds); alkaline phosphatase, Ishikawa cells; mean ± SEM
metric_name: EC50 (nM)
// note: answer is a bare numeric in nM

EC50 recorded for this molecule, CC(C)=CCc1c(O)cc(O)c2c(=O)c(O)c(-c3ccc(O)cc3)oc12 [DMI, Desmethylicaritin] , is 200
